Each item that follows carries a reported melting point.

The following compounds have reported results that may help.
Cc1cccc2oc(Nc3ccc(CC(=O)O)cc3)nc12 :: 337 to 339 °C
COc1ccc(C(=O)CC(=O)C(C)(C)C)cc1C(=O)CC(=O)C(C)(C)C :: 69.4 to 70.8 °C
CNS(=O)(=O)c1ccc(N2CCC(C(=O)OC)=Cc3cc(Br)ccc32)cc1 :: 201 to 204 °C
N#Cc1cc(O)c(O)c(C#N)c1CCCCC(=O)O :: 210 to 215 °C

Could you now look at the following compound, please?
Task item: Reported melting point for COc1ccc(C(O)Cc2ccncc2)cc1OC1CCCC1 (stereo not given) : what is it?
Reply: 97 to 101 °C

====

Each item that follows carries a reported melting point.

The following compounds have reported results that may help.
CCNc1ccc(F)c(-c2cccnc2)c1F :: 79 to 80 °C
Cc1ccc(Oc2ccc(C3NC(C(=O)O)CS3)cc2C#N)c(O)c1 (centres undefined) :: 150 to 152 °C
CCOC(=O)c1cc(NCc2ccccc2)c(Nc2ccccc2)c(S(N)(=O)=O)c1 :: 160 to 161 °C

Task item: Reported melting point for `Cc1ccc(S(=O)(=O)C=CC#N)cc1NS(=O)(=O)c1ccc2ccccc2c1` : what is it?
Reply: 214 to 216 °C

Task item: Reported melting point for `CCCc1nc2c(N)nc(C)c(C)c2n1CCCS(C)(=O)=O` : what is it?
Reply: 154 to 155 °C

Task item: Reported melting point for `CCCCNC(=O)NS(=O)(=O)c1c(C(=O)OCC)cnn1C` : what is it?
Reply: 117 to 119 °C

Task item: Reported melting point for `CC(C)(N)CNS(=O)(=O)c1ccccc1` : what is it?
Reply: 152 to 153 °C

Task item: Reported melting point for `Cc1c(NC(=O)c2ccc(-c3ccc(F)cc3)cc2)ccc2cc(CN3CCC(CCCC(N)=O)CC3)cnc12` : what is it?
Reply: 232 to 234 °C

Task item: Reported melting point for `O=C(Cc1ccc(Cc2ccc(F)cc2)o1)C(=O)c1ccc[nH]1` : what is it?
Reply: 96 to 98 °C

Task item: Reported melting point for `COc1cc2c(cc1Br)-c1c(Cl)c3c(n1CC2)C(=O)N(C(C)(C)C)CCCC3` : what is it?
Reply: 203 to 205 °C

Task item: Reported melting point for `COc1cc2c(cc1OC)N(C)C(=O)CN=C2c1cccc([N+](=O)[O-])c1` : what is it?
Reply: 152 to 155 °C

Task item: Reported melting point for `COc1ccccc1[C@H](c1cccc2ccccc12)[C@@](C)(C#N)C(=O)N1CCN(c2cccc(C)c2)CC1` : what is it?
Reply: 104 to 105 °C

====

readout: melting point

The following compounds have reported results that may help.
CCc1ncnc(NC2CCC3(CC2)OCC(c2ccccc2)O3)c1Cl (stereo not given) :: 105 to 106 °C
CCOC(=O)CN1Cc2ccccc2CC(N)C1=O (stereo not given) :: 71 to 73 °C
CCCc1ccccc1OCCCOc1ccc2c(=O)cc(C#N)oc2c1 :: 85 to 86 °C
CC(=O)OC1CSC(Oc2cccc(-c3ccc(C)o3)c2)C(OC(C)=O)C1OC(C)=O (stereo not given) :: 132 °C
O=C1Nc2ccccc2N2CCN(CCc3ccncc3)CC12 (stereo not given) :: 184 to 186 °C

Task item: Reported melting point for `Nc1nc(Nc2ccc(S(N)(=O)=O)cc2)sc1C(=O)c1ccc(C(=O)Oc2ccccc2)cc1` : what is it?
Reply: > 300 °C

Task item: Reported melting point for CC(C)(C)C(O)(CC(Br)=CBr)Cn1cncn1 (stereo not given) : what is it?
Reply: 81 °C

Task item: Reported melting point for `COc1ccc(N2CCN(c3ccc(NC(N)=S)cc3)CC2)cc1` : what is it?
Reply: 265 °C

Task item: Reported melting point for CC(=O)NCCC1CCc2ccc3nc(C4CC4)oc3c21 (stereo not given) : what is it?
Reply: 92 to 95 °C

Task item: Reported melting point for `O=C(Nc1ccc(Oc2c(Cl)cc(C(F)(F)F)c(Cl)c2Cl)cc1Cl)Nc1nonc1-c1ccccc1` : what is it?
Reply: 209 °C

Task item: Reported melting point for `CCOC(=O)/C=C/c1cnn(C)c1C` : what is it?
Reply: 82 to 83 °C

Task item: Reported melting point for `O=[N+]([O-])c1cccnc1NCc1ccccn1` : what is it?
Reply: 114 °C

The measured values listed here are drawn from a melting point compilation (Tetko et al.; mined from patent text by program, amines drawn as free bases though some values may be those of a salt).
